biological target: rat μ (C6-MOR) opioid receptor (Rattus norvegicus, UniProt P33535); test: Stimulation of [35S]GTPγS binding, MOR; conditions: [35S]GTPγS binding, C6-MOR membranes; mean ± standard error
Sequence (P33535 whole entry): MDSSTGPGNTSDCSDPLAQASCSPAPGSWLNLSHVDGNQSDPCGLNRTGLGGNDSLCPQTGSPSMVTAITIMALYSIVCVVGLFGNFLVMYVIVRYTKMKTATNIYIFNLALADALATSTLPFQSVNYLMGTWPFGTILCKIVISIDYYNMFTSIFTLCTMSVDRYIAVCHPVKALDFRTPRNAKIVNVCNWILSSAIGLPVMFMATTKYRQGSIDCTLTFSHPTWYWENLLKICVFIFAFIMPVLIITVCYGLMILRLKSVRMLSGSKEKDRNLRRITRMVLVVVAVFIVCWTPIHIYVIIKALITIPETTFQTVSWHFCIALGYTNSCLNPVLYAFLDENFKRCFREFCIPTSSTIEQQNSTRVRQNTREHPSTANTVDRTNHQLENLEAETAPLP
Criterion: EC50 strictly less than 7 nM. Met: met. Not met: not met.

Reference set, count: 2
{"columns": ["structureSmilesString", "testedOn", "qualitativeLabel"],
 "data": [
  ["CCOC(=O)c1cc(Cc2ccccc2)cc2c1NCC[C@H]2NC(=O)[C@@H](N)Cc1c(C)cc(O)cc1C", "rat μ (C6-MOR) opioid receptor (Rattus norvegicus, UniProt P33535)", "met"],
  ["Cc1cc(O)cc(C)c1C[C@H](N)C(=O)N(C1CC1)[C@@H]1CCNc2ccc(Cc3ccccc3)cc21", "rat μ (C6-MOR) opioid receptor (Rattus norvegicus, UniProt P33535)", "not met"]
]}

Now examine the next entry.
Below 7 nM on EC50? Entry COc1cc(Cc2ccccc2)cc2c1NCC[C@H]2NC(=O)[C@@H](N)Cc1c(C)cc(O)cc1C
met

---

molecular target: rat μ (C6-MOR) opioid receptor (Rattus norvegicus); construct: expressed in transfected cells; assay: Stimulation of [35S]GTPγS binding, MOR; assay type: biochemical; details: [35S]GTPγS maximal stimulation compared with 10 μM standard DAMGO
endpointName: Emax

Would you please look over these solved cases?
{"columns": ["compound", "endpointName", "result"],
 "data": [
  ["Cc1cc(O)cc(C)c1C[C@H](N)C(=O)N[C@@H]1CCNc2ccc(CN3CCC[C@H]4CCCC[C@@H]43)cc21 [Compound 1051]", "Emax", "36.2%"],
  ["Cc1cc(O)cc(C)c1C[C@H](N)C(=O)N[C@H]1c2cc(Cc3ccccc3)ccc2NC[C@H]1C [Compound 1078]", "Emax", "80.2%"],
  ["CCC(=O)N1CC[C@@H](NC(=O)[C@@H](N)Cc2c(C)cc(O)cc2C)c2cc(CC3Cc4ccccc4C3)ccc21 [Compound 1033]", "Emax", "52%"],
  ["Cc1cc(O)cc(C)c1C[C@H](N)C(=O)N[C@@H]1CCNc2c(CN3CCOCC3)cc(Cc3ccccc3)cc21 [Compound 1099]", "Emax", "96.1%"],
  ["Cc1cc(O)cc(C)c1C[C@H](N)C(=O)N[C@@H]1CCOc2ccc(Cc3ccccc3)cc21 [Compound 1111]", "Emax", "69.7%"]
]}

Look at each compound and report its Emax.
1. CC(=O)N1CC[C@@H](NC(=O)[C@@H](N)Cc2c(C)cc(O)cc2C)c2cc(-c3ccccc3)ccc21 [Compound 1067]
2. Cc1cc(O)cc(C)c1C[C@H](N)C(=O)N[C@@H]1CCNc2ccc(CN3CCc4cccc(C(F)(F)F)c4C3)cc21 [Compound 1061]
3. Cc1cc(O)cc(C)c1C[C@H](N)C(=O)N[C@@H]1CCN2CCCc3cc(Cc4ccccc4)cc1c32 [Compound 1069]
4. Cc1cc(C(N)=O)cc(C)c1C[C@H](N)C(=O)N[C@@H]1CCNc2ccc(Cc3ccccc3)cc21 [Compound 1048]
5. Cc1cc(O)cc(C)c1C[C@H](N)C(=O)N[C@@H]1CCNc2ccc(Cc3cc4ccccc4o3)cc21 [Compound 1065]
6. Cc1cc(O)cc(C)c1C[C@H](N)C(=O)N[C@@H]1CCNc2cc(Cc3ccccc3)ccc21 [Compound 1023]
7. Cc1cc(O)cc(C)c1C[C@H](N)C(=O)N[C@@H]1CCNc2cc(O)c(Cc3ccccc3)cc21 [Compound 1046]
8. Cc1cc(O)cc(C)c1C[C@H](N)C(=O)N[C@@H]1CCCc2ccccc21 [Compound 1113]

["51.3%", "37.8%", "95.2%", "97.9%", "97.9%", "18.1%", "94.7%", "3.44%"]

Batch request: Emax for each of the following compounds.
1. Cc1cc(O)cc(C)c1C[C@H](N)C(=O)N[C@@H]1CCNc2ccc(C(c3ccccc3)c3ccccc3)cc21 [Compound 1022]
2. Cc1cc(O)cc(C)c1C[C@H](N)C(=O)N[C@@H]1CCNc2c(C(=O)O)cc(Cc3ccccc3)cc21 [Compound 1130]
3. CCCc1cc(Br)cc2c1NCC[C@H]2NC(=O)[C@@H](N)Cc1c(C)cc(O)cc1C [Compound 1058]
4. Cc1cc(O)cc(C)c1C[C@H](N)C(=O)N[C@@H]1CCCc2ccc(-c3ccc4ccccc4c3)cc21 [Compound 1116]
5. CCCCc1cc(Cc2ccccc2)cc2c1NCC[C@H]2NC(=O)[C@@H](N)Cc1c(C)cc(O)cc1C [Compound 1126]
6. N[C@@H](Cc1c(Cl)cc(O)cc1Cl)C(=O)N[C@@H]1CCCc2ccc(Oc3ccccc3)cc21 [Compound 1119]
7. CC(=O)N1CC[C@@H](NC(=O)[C@@H](N)Cc2c(C)cc(O)cc2C)c2cc(Oc3cccc(Cl)c3)ccc21 [Compound 1027]
8. COc1cc(Cc2ccccc2)cc2c1NCC[C@H]2NC(=O)[C@@H](N)Cc1c(C)cc(O)cc1C [Compound 1063]

1: 24.5%; 2: 60%; 3: 12.6%; 4: -1.1%; 5: 85%; 6: 20.7%; 7: 72.2%; 8: 84.1%

---

target: UniProt P41145; assay: Stimulation of [35S]GTPγS binding, KOR; conditions: [35S]GTPγS binding, CHO-KOR membranes; mean ± standard error
Sequence (P41145 whole entry): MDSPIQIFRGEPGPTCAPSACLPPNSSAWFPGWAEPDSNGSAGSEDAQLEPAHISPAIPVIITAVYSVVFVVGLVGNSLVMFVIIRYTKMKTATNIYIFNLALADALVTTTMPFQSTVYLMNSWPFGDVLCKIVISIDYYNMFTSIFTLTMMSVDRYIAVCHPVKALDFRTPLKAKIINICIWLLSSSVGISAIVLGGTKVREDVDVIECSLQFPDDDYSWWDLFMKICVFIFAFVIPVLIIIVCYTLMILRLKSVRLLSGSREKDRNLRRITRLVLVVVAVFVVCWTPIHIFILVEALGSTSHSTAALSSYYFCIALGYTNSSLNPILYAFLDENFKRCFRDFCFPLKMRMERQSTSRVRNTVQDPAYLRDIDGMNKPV
pEC50: −log10 of the molar value.
Output Yes for pEC50 not less than 6; output No otherwise.

Reference set (2 entries):
{"columns": ["structureSmilesString", "qualitativeLabel"],
 "data": [
  ["CCCN1CC[C@@H](NC(=O)[C@@H](N)Cc2c(C)cc(O)cc2C)c2cc(Cc3ccccc3)ccc21", "No"],
  ["CCCCCc1ccc2c(c1)[C@H](NC(=O)[C@@H](N)Cc1c(C)cc(O)cc1C)CCN2", "Yes"]
]}

From here, focus on the item given below.
Evaluate Cc1cc(O)cc(C)c1C[C@H](N)C(=O)N[C@@H]1C[C@@H](C)Nc2ccc(Cc3ccccc3)cc21 : pEC50 at minimum 6?
No

---

biological target: rat μ (C6-MOR) opioid receptor (Rattus norvegicus, UniProt P33535); assay: Stimulation of [35S]GTPγS binding, MOR; conditions: [35S]GTPγS binding, C6-MOR membranes; mean ± standard error
# label = Criterion met if EC50 < 6 nM else Criterion not met

{"columns": ["molecule", "testedOn", "qualitativeLabel"],
 "data": [
  ["CC(=O)N1CC[C@@H](NC(=O)[C@@H](N)Cc2c(C)cc(O)cc2C)c2cc(CN3CCc4cccc(C(F)(F)F)c4C3)ccc21", "rat μ (C6-MOR) opioid receptor (Rattus norvegicus, UniProt P33535)", "Criterion met"],
  ["Cc1cc(O)cc(C)c1C[C@H](N)C(=O)N[C@@H]1CCNc2ccc(Cc3ccc4c(c3)OCCO4)cc21", "rat μ (C6-MOR) opioid receptor (Rattus norvegicus, UniProt P33535)", "Criterion met"],
  ["Cc1cc(O)cc(C)c1C[C@H](N)C(=O)N[C@@H]1CCCc2ccc(Oc3ccccc3)cc21", "rat μ (C6-MOR) opioid receptor (Rattus norvegicus, UniProt P33535)", "Criterion not met"],
  ["Cc1cc(O)cc(C)c1C[C@H](N)C(=O)N[C@@H]1CCNc2ccc(Sc3ccccc3)cc21", "rat μ (C6-MOR) opioid receptor (Rattus norvegicus, UniProt P33535)", "Criterion met"],
  ["Cc1cc(O)cc(C)c1C[C@H](N)C(=O)N[C@@H]1CCNc2ccc(CC3Cc4cccc(O)c4C3)cc21 (stereo partly shown)", "rat μ (C6-MOR) opioid receptor (Rattus norvegicus, UniProt P33535)", "Criterion met"]
]}

Please check: EC50 for Cc1cc(O)cc(C)c1C[C@H](N)C(=O)N[C@@H]1CCNc2c(CCc3ccccc3)cc(Cc3ccccc3)cc21 , strictly under 6 nM or not?
Criterion not met

---

molecular target: rat δ (C6-DOR) opioid receptor (Rattus norvegicus, UniProt P33533)
Sequence (P33533 whole entry): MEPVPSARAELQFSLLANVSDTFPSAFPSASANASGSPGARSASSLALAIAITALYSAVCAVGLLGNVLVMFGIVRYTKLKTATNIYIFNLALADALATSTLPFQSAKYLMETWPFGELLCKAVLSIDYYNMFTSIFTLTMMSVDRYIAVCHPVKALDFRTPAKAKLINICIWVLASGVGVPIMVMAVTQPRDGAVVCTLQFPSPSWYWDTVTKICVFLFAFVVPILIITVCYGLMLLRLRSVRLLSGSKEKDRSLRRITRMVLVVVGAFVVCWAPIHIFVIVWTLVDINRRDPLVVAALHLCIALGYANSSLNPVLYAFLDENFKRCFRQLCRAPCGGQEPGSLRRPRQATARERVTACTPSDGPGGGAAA
endpointName: pKi
Give bare numbers, as −log10 of the molar value.

Study these solved cases before continuing.
{"columns": ["compound", "testedOn", "pKi"],
 "data": [
  ["Cc1cc(O)cc(C)c1C[C@H](N)C(=O)N[C@@H]1CCNc2c(C)cc(Cc3ccccc3)cc21", "rat δ (C6-DOR) opioid receptor (Rattus norvegicus, UniProt P33533)", 8.96],
  ["CCCCc1cc(Cc2ccccc2)cc2c1NCC[C@H]2NC(=O)[C@@H](N)Cc1c(C)cc(O)cc1C", "rat δ (C6-DOR) opioid receptor (Rattus norvegicus, UniProt P33533)", 8.45],
  ["Cc1cc(O)cc(C)c1C[C@H](N)C(=O)N[C@H]1c2cc(Cc3ccccc3)ccc2NC[C@H]1C", "rat δ (C6-DOR) opioid receptor (Rattus norvegicus, UniProt P33533)", 8.69],
  ["N[C@@H](Cc1ccc(Cl)cc1Cl)C(=O)N[C@@H]1CCNc2ccc(Cc3ccccc3)cc21", "rat δ (C6-DOR) opioid receptor (Rattus norvegicus, UniProt P33533)", 5.68],
  ["Cc1cc(O)cc(C)c1C[C@H](N)C(=O)N[C@@H]1CCNc2c(Cc3ccccc3)cccc21", "rat δ (C6-DOR) opioid receptor (Rattus norvegicus, UniProt P33533)", 6.61]
]}

Required: pKi, one value per compound below.
1. Cc1cc(O)cc(C)c1C[C@H](N)C(=O)N[C@@H]1CCCc2ccccc21
2. Cc1cc(O)cc(C)c1C[C@H](N)C(=O)N[C@@H]1CCNc2ccc(CC3Cc4ccc(O)cc4C3)cc21 (stereo partly shown)

[6.19, 7.70]
